# system under test: Δ^1–28 L-PGDS (Homo sapiens, UniProt P41222)
# Sequence (P41222 29-190, stated change not applied): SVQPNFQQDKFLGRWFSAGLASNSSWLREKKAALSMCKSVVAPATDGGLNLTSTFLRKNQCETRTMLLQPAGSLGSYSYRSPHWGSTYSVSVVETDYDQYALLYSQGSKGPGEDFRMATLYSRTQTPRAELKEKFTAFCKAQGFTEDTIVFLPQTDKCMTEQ
# procedure summary: Fluorescence displacement binding assay
# measurement setup: DAUDA displacement
property measured: Ki (µM)
Lab book: enter the figure in µM, no units written.

Asked: Give the measured Ki for CCCCCc1cc(O)c2c(c1)OC(C)(C)[C@@H]1CCC(C(=O)O)=C[C@@H]21
Given back: 7.8

###

# system under test: Δ^1–28 L-PGDS (Homo sapiens)
# procedure summary: Intrinsic tryptophan fluorescence quenching assay
# Assay type: binding
# measurement setup: compound 20 μM, L-PGDS 1.5 μM, pH 8.0; mean ± SE
Attribute: Quenching (%), fluorescence reduction relative to vehicle-treated Δ^1–28 L-PGDS
Lab book: enter the figure in %, no units written.

Asked: Give the measured Quenching (%), fluorescence reduction relative to vehicle-treated Δ^1–28 L-PGDS for CCCCCCCC/C=C\CCCCCCCC(=O)NCCO [OEA, oleoylethanolamide]
Given back: −0.9

Asked: Give the measured Quenching (%), fluorescence reduction relative to vehicle-treated Δ^1–28 L-PGDS for C=C(C)[C@@H]1CCC(C)=C[C@H]1c1c(O)cc(CCCCC)cc1O
Given back: 7.2

Asked: Give the measured Quenching (%), fluorescence reduction relative to vehicle-treated Δ^1–28 L-PGDS for CCCCC[C@H](O)/C=C/[C@@H]1[C@@H](C/C=C\CCCC(=O)NCCO)[C@@H](O)C[C@H]1O [Prostamide F2α]
Given back: 0.1

Asked: Give the measured Quenching (%), fluorescence reduction relative to vehicle-treated Δ^1–28 L-PGDS for CCCCCc1cc(O)c2c(c1)OC(C)(C)[C@@H]1CCC(C)=C[C@@H]21 [THC, Δ^9-tetrahydrocannabinol]
Given back: 14.0

Origin of values: paper PMC6643050
